- SYSTEM_UNDER_TEST: T1, CSP Protein (Plasmodium falciparum, UniProt Q7K740 19-374)
- T1 construct: also called circumsporozoite protein; complete CSP protein
- ASSAY_REMARKS: SPR, antibody on chip;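 also: antibodies immobilized on a Carterra chip, directly or via anti-human Fc capture, at two spots each, with CSP flowed over at 4-5 concentrations peaking at 0.5-8 µg/mL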
pKd: −log10 of the molar value.

| BINDER | pKd |
| --- | --- |
| AB-007049 (antibody, V domains shown) VH: QMQLVESGGGVVQPGRSLRLSCTASGFTFSTYAMHWVRQSPGQGLQWVAVISNHETNKYYEDSVRGRFTISRDNSKNTLYLQMNSLRAEDTAVYYCARDGYSSSFFDFWGQGTLVTVSS VL: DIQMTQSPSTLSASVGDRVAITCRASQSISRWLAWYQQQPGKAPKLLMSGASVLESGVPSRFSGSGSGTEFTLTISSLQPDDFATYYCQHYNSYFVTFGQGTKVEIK | 9.82 |
| AB-007053 (antibody, V domains shown) VH: QMQLVESGGGVVQPGRSLRLSCTASGFTFSTYAMHWVRQSPGQGLQWVAVISYHSTQKYYEDSVRGRFTISRDNSKNTLYLQMNSLRAEDTAVYYCARDGYSSSFFDFWGQGTLVTVSS VL: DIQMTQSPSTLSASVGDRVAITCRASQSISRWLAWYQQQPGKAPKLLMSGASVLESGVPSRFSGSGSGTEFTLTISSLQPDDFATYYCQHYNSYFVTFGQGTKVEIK | 9.53 |

Data origin: patent US20220195023A1
